Measured DC50 values are reported for all entries that follow.
- test-system: BRD4 (Homo sapiens, UniProt O60885)
- condition-info: read-out: HEK293 (DC50); BRD4 degradation, 6 hours; N = 1
Give the value in µM but do not write µM after it.

Sample records with DC50:
- compound: "Cc1ccc(C(C)C)cc1Oc1nccc(-c2c(-c3ccc(C(F)(F)F)cc3)ncn2C2CCN(CCOCCOCCNC(=O)CN(C)c3cccc4c3C(=O)N(C3CCC(=O)NC3=O)C4=O)CC2)n1 (stereo not shown)"
  test-system: "BRD4 (Homo sapiens, UniProt O60885)"
  DC50 [µM]: 0.105
- compound: "Cc1ccc(C(C)C)cc1Oc1nccc(-c2c(-c3ccc(C(F)(F)F)cc3)ncn2C2CCN(CCOCCOCCNC(=O)COc3cccc4c3C(=O)N(C3CCC(=O)NC3=O)C4=O)CC2)n1 (stereo not shown)"
  test-system: "BRD4 (Homo sapiens, UniProt O60885)"
  DC50 [µM]: 0.5
- compound: "Cc1ccc(C(C)C)cc1Oc1nccc(-c2c(-c3ccc(C(F)(F)F)cc3)ncn2C2CCN(CCOCCOCCNC(=O)CNc3cccc4c3C(=O)N(C3CCC(=O)NC3=O)C4=O)CC2)n1 (stereo not shown)"
  test-system: "BRD4 (Homo sapiens, UniProt O60885)"
  DC50 [µM]: 0.29

Kindly consider the entry below.
Which DC50 is reported with BRD4 (Homo sapiens, UniProt O60885) for this entry: Cc1ccc(C(C)C)cc1Oc1nccc(-c2c(-c3ccc(C(F)(F)F)cc3)ncn2C2CCN(CCNC(=O)COc3cccc4c3C(=O)N(C3CCC(=O)NC3=O)C4=O)CC2)n1 (stereo not shown) ?
0.81
